Tested on: COS-7 cells
Assay: MTT cytotoxicity in COS-7 cells (run with SEAP)
Assay type: cell-based, green monkey
Conditions: Chlorocebus sabaeus, COS-7, read-out: COS-7 IC50
pIC50: −log10 of the molar value.
QUANTITY MEASURED: pIC50

>>> test_result("CN(C)CCOc1ccc(CCCCc2ccc(OCCN(C)C)c(OCCN(C)C)c2)cc1OCCN(C)C")
"4.52 to 4.70"
>>> test_result("COc1ccc(CCCCc2ccc(OC)c(OC)c2)cc1OC")
"< 4.00"

###

Experiment: Caco-2 monolayer permeability study
Details: human, Caco-2, pH 7.4, Papp A to B, Caco-2, nominal conc. 20 μM, 90 minutes, duplicate monolayers
QUANTITY MEASURED: Papp A→B at 90 min, 20 μM (nm/s)

>>> test_result("CN(C)CCOc1ccc(CCCCc2ccc(OCCN(C)C)c(OCCN(C)C)c2)cc1OCCN(C)C [Compound H]")
667
